Ref: PubChem BioAssay (NCI)

- Test system: OVCAR-4 ovarian
- experiment_notes: NCI tumour cell line growth inhibition, 48 h
*1 amine or outer side, *2 acyl side, *3 side chain or, on linkers, in order; H or OH if unused. Where a SMILES comes first, the peptide text is derived from it. Bridges are numbered along the chain shown (N, C = ends). [ ]: non-standard residue; d: D form. ξ: configuration not given here. X35 = CC[C@H](C)[C@@H](N[*:1])[C@@H](O)CC(=O)O[C@H](C(=O)[C@H](C)C(=O)[*:2])C(C)C; NMeY = CN[C@@H](Cc1ccc(O)cc1)C(=O)O; dNMeL = CN[C@H](CC(C)C)C(=O)O; ξΔPro = O=C(O)C1C=CCN1
parameter: TGI

[
  {
    "compound": "NC1c2c(Cl)sc(Cl)c2C(=O)C1O (configuration not stated)",
    "study_target": "OVCAR-4 ovarian",
    "parameter": "TGI",
    "reading": "50.4 µM"
  },
  {
    "compound": "COc1ccc(C2SCC(=O)N2NC(=O)C(C)Oc2ccc(Cl)cc2Cl)cc1 (configuration not stated)",
    "study_target": "OVCAR-4 ovarian",
    "parameter": "TGI",
    "reading": "52.6 µM"
  },
  {
    "compound": "CC1=CC[C@](C)(O)[C@@]2(C)CC[C@H]3C(=C(C)C)C(=O)C[C@]3(C)C[C@H]12",
    "study_target": "OVCAR-4 ovarian",
    "parameter": "TGI",
    "reading": "> 50 µM"
  },
  {
    "compound": "COc1cc2cc(C(=O)N3CC(CCl)c4c3cc(NC(=O)C(C)Nc3c([N+](=O)[O-])cc(C(=O)NCCN(C)C)cc3[N+](=O)[O-])c3ccccc43)[nH]c2c(OC)c1OC (configuration not stated)",
    "study_target": "OVCAR-4 ovarian",
    "parameter": "TGI",
    "reading": "0.551 µM"
  },
  {
    "compound": "O=c1c(O)cccn1C1OC(CO)C(O)C1O (configuration not stated)",
    "study_target": "OVCAR-4 ovarian",
    "parameter": "TGI",
    "reading": "> 100 µM"
  },
  {
    "compound": "CCn1c(=O)c2c3ccc(OC(C)=O)cc3[nH]c2c2ccc(OC(C)=O)cc21",
    "study_target": "OVCAR-4 ovarian",
    "parameter": "TGI",
    "reading": "> 100 µM"
  },
  {
    "compound": "C=C(CCOC)CCC1CCCCC(=C)[C@H]1O (some centres not stated)",
    "study_target": "OVCAR-4 ovarian",
    "parameter": "TGI",
    "reading": "> 100 µM"
  },
  {
    "compound": "CC[C@]1(O)C[C@@H]2CN(CCc3c([nH]c4ccccc34)[C@@](C(=O)OC)(c3cc4c(cc3OC)N(C)[C@H]3[C@@](O)(C(N)=O)[C@H](O)[C@]5(CC)[C@@H]6C[C@@H]6CN6CC[C@]43[C@@H]65)C2)C1",
    "study_target": "OVCAR-4 ovarian",
    "parameter": "TGI",
    "reading": "> 33.3 µM"
  },
  {
    "compound": "CCCCCCCCCCCCCC(=O)NCC(OCC)OCC",
    "study_target": "OVCAR-4 ovarian",
    "parameter": "TGI",
    "reading": "> 100 µM"
  },
  {
    "compound": "Cc1nc2c(n1-c1ccccc1)C(=O)c1ccccc1C2=O",
    "study_target": "OVCAR-4 ovarian",
    "parameter": "TGI",
    "reading": "> 100 µM"
  },
  {
    "compound": "NNS(=O)(=O)c1cc(C(=O)O)cc(C(=O)O)c1",
    "study_target": "OVCAR-4 ovarian",
    "parameter": "TGI",
    "reading": "> 100 µM"
  },
  {
    "compound": "COC(=O)c1ccc2c(c1)C(=O)c1c-2n(CCCN)c(=O)c2cc(OC)c(OC)cc12",
    "study_target": "OVCAR-4 ovarian",
    "parameter": "TGI",
    "reading": "40 µM"
  },
  {
    "compound": "CC[C@H](C)[C@H]1NC(=O)[C@@H](NC(=O)[C@@H](CC(C)C)N(C)C(=O)C2C=CCN2)[C@@H](C)OC(=O)[C@H](Cc2ccc(OC)cc2)N(C)C(=O)[C@@H]2CCCN2C(=O)[C@H](CC(C)C)NC(=O)[C@@H](C)C(=O)[C@H](C(C)C)OC(=O)C[C@@H]1O (some centres not stated) (H-[ξΔPro][dNMeL]T[X35]LP[NMeY](Me); ester 3-C)",
    "study_target": "OVCAR-4 ovarian",
    "parameter": "TGI",
    "reading": "< 0.005 µM"
  },
  {
    "compound": "Nc1cc2[nH]cnc2c(=O)[nH]1",
    "study_target": "OVCAR-4 ovarian",
    "parameter": "TGI",
    "reading": "> 300 µM"
  },
  {
    "compound": "COc1cc(C2c3cc4c(cc3[C@@H](OCCN(C)C)C3COC(=O)[C@H]23)OCO4)cc(OC)c1O (some centres not stated)",
    "study_target": "OVCAR-4 ovarian",
    "parameter": "TGI",
    "reading": "6.33 µM"
  },
  {
    "compound": "COC(=O)c1ccc(C(=O)OC)c2nc3cc(C)ccc3nc12",
    "study_target": "OVCAR-4 ovarian",
    "parameter": "TGI",
    "reading": "> 100 µM"
  },
  {
    "compound": "COc1ccccc1NC(=S)N/N=C/c1ccccn1",
    "study_target": "OVCAR-4 ovarian",
    "parameter": "TGI",
    "reading": "> 100 µM"
  },
  {
    "compound": "CNCCNc1nc2ccccc2c2c(=O)c3cc(OC)ccc3sc12",
    "study_target": "OVCAR-4 ovarian",
    "parameter": "TGI",
    "reading": "3.22 µM"
  },
  {
    "compound": "O=c1c2cc(Br)ccc2ncn1COCc1ccccc1",
    "study_target": "OVCAR-4 ovarian",
    "parameter": "TGI",
    "reading": "> 100 µM"
  },
  {
    "compound": "O=c1cc(-c2ccccn2)[nH]c2cc(F)ccc12",
    "study_target": "OVCAR-4 ovarian",
    "parameter": "TGI",
    "reading": "> 100 µM"
  },
  {
    "compound": "O=C(Nc1ccc(Br)cc1)Nc1nn(C(=O)Nc2ccc(Br)cc2)c2ccccc12",
    "study_target": "OVCAR-4 ovarian",
    "parameter": "TGI",
    "reading": "> 66.8 µM"
  },
  {
    "compound": "C[PH+](c1nc2ccccc2nc1[PH+](C)C(C)(C)C)C(C)(C)C.C[PH+](c1nc2ccccc2nc1[PH+](C)C(C)(C)C)C(C)(C)C.[Au+].[Cl-] (configuration not stated)",
    "study_target": "OVCAR-4 ovarian",
    "parameter": "TGI",
    "reading": "0.77 µM"
  }
]

###

- Tested on: HL-60(TB) leukemia
- experiment_notes: NCI tumour cell line growth inhibition, 48 h
parameter: TGI

[
  {
    "compound": "O=NN1CCCS1(=O)=O",
    "reading": "> 100 µM"
  },
  {
    "compound": "O=c1oc2cccnc2n1CCCCN1CCN(c2ccccc2)CC1",
    "reading": "> 100 µM"
  },
  {
    "compound": "CC(=O)O[C@H]1CCC2[C@@H]3CCC4NC(=O)C(C#N)C[C@]4(C)C3CC[C@@]21C (stereo not given in full)",
    "reading": "> 10 µM"
  },
  {
    "compound": "O=C(Nc1ccc(Br)cc1)Nc1nn(C(=O)Nc2ccc(Br)cc2)c2ccccc12",
    "reading": "> 32.2 µM"
  },
  {
    "compound": "CCN(CC)/[N+]([O-])=N/O",
    "reading": "> 100 µM"
  },
  {
    "compound": "O=c1nc2ccc3sc4ccccc4c(=O)c3n2c(=O)[nH]1",
    "reading": "> 100 µM"
  },
  {
    "compound": "CC(=O)c1cccc(-c2cccc(-c3ccn(CCN4CCOCC4)n3)c2)c1",
    "reading": "> 20 µM"
  },
  {
    "compound": "CN1c2ccccc2S(=O)(=O)n2c(CCc3ccccc3)nnc21",
    "reading": "> 100 µM"
  },
  {
    "compound": "COc1cc2oc(-c3ccc4c(c3)OCO4)c(OC)c(=O)c2c(O)c1OC",
    "reading": "> 50 µM"
  },
  {
    "compound": "COC(=O)C1CC23C=CCN4CC(C2C)C2(c5ccccc5NC12)C43 (stereo not given)",
    "reading": "> 100 µM"
  },
  {
    "compound": "Cc1ccc2sc3ccc(N)cc3c(=O)c2c1",
    "reading": "> 100 µM"
  },
  {
    "compound": "CC(=O)Nc1ccc(/C=C2/NC(=S)N(/C=C3\\C(=O)Oc4ccccc4C3=O)C2=O)cc1",
    "reading": "> 100 µM"
  },
  {
    "compound": "COc1cc(/C=C/c2ccc(OC)c(OC)c2OC)cc(OC)c1OC",
    "reading": "> 68 µM"
  },
  {
    "compound": "O=C(O)COc1cc(-c2ccccc2)nc2ccccc12",
    "reading": "> 100 µM"
  },
  {
    "compound": "Cn1c(=O)n(CC2CS2)c2ccccc21 (stereo not given)",
    "reading": "> 100 µM"
  }
]
